protocol_summary: self-splicing fitness, log relative to wild type (ln ratio); higher = more splicing; Tetrahymena group I intron in knt gene, E. coli kanamycin selection, DiMSum; sequences stand for … in CUCUCU…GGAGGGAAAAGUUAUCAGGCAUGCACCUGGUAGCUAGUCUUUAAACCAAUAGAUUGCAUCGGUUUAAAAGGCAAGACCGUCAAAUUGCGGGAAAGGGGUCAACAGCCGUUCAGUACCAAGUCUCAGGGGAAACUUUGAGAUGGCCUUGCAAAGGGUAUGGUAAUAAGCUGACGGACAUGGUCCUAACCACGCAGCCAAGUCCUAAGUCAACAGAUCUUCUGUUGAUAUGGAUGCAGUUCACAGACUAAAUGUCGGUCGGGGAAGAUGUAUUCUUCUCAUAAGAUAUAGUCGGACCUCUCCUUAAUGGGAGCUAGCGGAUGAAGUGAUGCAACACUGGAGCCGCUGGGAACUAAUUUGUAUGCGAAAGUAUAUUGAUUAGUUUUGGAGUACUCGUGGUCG;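 note: selection with 25 µg/mL kanamycin versus none on LB agar overnight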
assay_context: 30 °C
Rule: self-splicing fitness (ln) of -1 or more gives criterion met; anything lower gives criterion not met.

>  <residue_sequence>
UUCCAGCAAUAUUACGCGUC

>  <label>
criterion not met

$$$$
>  <residue_sequence>
ACUGAGCAAUAUUACGCACG

>  <label>
criterion not met

$$$$
>  <residue_sequence>
GGAAAGCAAUAUUACGGCUU

>  <label>
criterion not met

$$$$
>  <residue_sequence>
UGAGAGCAAUAUUACGAUUG

>  <label>
criterion not met

$$$$
>  <residue_sequence>
CUUUAGCAAUAUUACGGCAU

>  <label>
criterion not met

$$$$
>  <residue_sequence>
CAAGAGCAAUAUUACGAAGG

>  <label>
criterion not met

$$$$
>  <residue_sequence>
UGGAAGCAAUAUUACGCCCG

>  <label>
criterion met

$$$$
>  <residue_sequence>
GCUCAGCAAUAUUACGUGUG

>  <label>
criterion not met

$$$$
>  <residue_sequence>
AUAGAGCAAUAUUACGUAGA

>  <label>
criterion not met

$$$$
>  <residue_sequence>
GUGAAGCAAUAUUACGUGUG

>  <label>
criterion met

$$$$
>  <residue_sequence>
CGCGAGCAAUAUUACGCCUC

>  <label>
criterion not met

$$$$
>  <residue_sequence>
GCCUAGCAAUAUUACGGGGA

>  <label>
criterion met

$$$$
>  <residue_sequence>
GUCCAGCAAUAUUACGAAGC

>  <label>
criterion met

$$$$
>  <residue_sequence>
AGGCAGCAAUAUUACGAACA

>  <label>
criterion not met

$$$$
>  <residue_sequence>
CGUAAGCAAUAUUACGUAAG

>  <label>
criterion not met

$$$$
>  <residue_sequence>
CUGCAGCAAUAUUACGUAAG

>  <label>
criterion met

$$$$
>  <residue_sequence>
AAUAAGCAAUAUUACGAAGC

>  <label>
criterion not met

$$$$
>  <residue_sequence>
ACUAAGCAAUAUUACGGAAC

>  <label>
criterion not met

$$$$
>  <residue_sequence>
AGAUAGCAAUAUUACGGCCG

>  <label>
criterion met

$$$$
>  <residue_sequence>
UCACAGCAAUAUUACGACAA

>  <label>
criterion not met

$$$$
>  <residue_sequence>
GGCUAGCAAUAUUACGUAGG

>  <label>
criterion not met

$$$$
>  <residue_sequence>
UAGGAGCAAUAUUACGUUGA

>  <label>
criterion not met

$$$$
>  <residue_sequence>
UGACAGCAAUAUUACGUGGU

>  <label>
criterion not met

$$$$
>  <residue_sequence>
UCUGAGCAAUAUUACGACUA

>  <label>
criterion not met

$$$$
>  <residue_sequence>
GAUGAGCAAUAUUACGGAGG

>  <label>
criterion not met

$$$$
>  <residue_sequence>
AUCUAGCAAUAUUACGCUCG

>  <label>
criterion met

$$$$
>  <residue_sequence>
CAAAAGCAAUAUUACGCUGU

>  <label>
criterion not met

$$$$
>  <residue_sequence>
GUGUAGCAAUAUUACGGUCU

>  <label>
criterion not met

$$$$
>  <residue_sequence>
CCCGAGCAAUAUUACGGAUA

>  <label>
criterion not met

$$$$
>  <residue_sequence>
AAACAGCAAUAUUACGUUAC

>  <label>
criterion not met

$$$$
>  <residue_sequence>
UGUGAGCAAUAUUACGCACC

>  <label>
criterion not met

$$$$
>  <residue_sequence>
AUGAAGCAAUAUUACGGAAG

>  <label>
criterion not met

$$$$
